All figures here come from PubChem BioAssay AID720517.

Assay: qHTS for Inhibitors of Cell Surface uPA Generation: FP59 Counterscreen for Cherry-picked Compounds
Settings: FP59 anthrax toxin cytotoxicity counterscreen, cells; series mostly up to 115 µM
Records with an inconclusive call do not appear. Activity calls are given as the source filed them. Calls come from the whole dose curve; as a rule, active = well fitted activation curve with a large enough effect; inconclusive = small, poorly fitted or top-dose-only effect; inactive = flat fitted curve, though single readings scatter.
Observable: outcome

See these solved cases before continuing.
O=C(NCc1ccco1)/C(=C\c1cccs1)NC(=O)c1ccccc1    inactive
CCC1=NN(C(=O)C(=O)Nc2ccc(OC)cc2)C(O)(C(F)(F)F)C1 (stereo unspecified)    inactive
CC1(C)S[C@@H]2[C@H](NC(=O)C(C(=O)O)c3ccccc3)C(=O)N2[C@H]1C(=O)O (stereo partly specified)    inactive
CC(=O)[C@@]1(O)[C@H](C)CC2C3CC=C4CC(OP(=O)(O)O)CC[C@]4(C)C3CC[C@@]21C (stereo partly specified)    inactive
Cc1ccc2nc(Nc3ccc(Cl)cc3)c3nncn3c2c1    inactive

Field: next compound
Form field outcome, entry O=C1[C@H]2[C@@H](c3ccc(F)cc3)N3C(=O)N(c4cccc(F)c4)C(=O)[C@@]3(Cc3ccc(Cl)cc3)[C@H]2C(=O)N1C1CCCCC1 : inactive
